test system: UACC-62; assay: NCI tumour cell line growth inhibition, 48 h
The source made the active and inactive calls. Rule as the data show it: active = GI50 up to about 1.1 µM and inactive = higher.
A correct response names exactly one class from t for active, f for inactive

CC1=CC(=O)C(C(O)(C(F)(F)F)C(F)(F)F)C(C)(C)C1 (stereo unspecified)	f
O=c1cc(-c2ccccc2)oc2c1ccc1nc3ccccc3c(O)c12	f
CCOC(=O)C1N(S(=O)(=O)c2ccc(C)cc2)CCC12C(c1ccc(OC)c(OC)c1)=Nc1ccccc12 (stereo unspecified)	f

Prompt: Could you kindly confirm the outcome this assay logged for CCN1C(=O)/C(=C/Nc2ccccc2)S/C1=N/Nc1nc(-c2ccc(O)c(O)c2)cs1 ?
Completion: f

Prompt: Could you kindly confirm the outcome this assay logged for CCOC(=O)C(=O)C(C#N)c1ccc(Cl)cc1 (stereo unspecified) ?
Completion: f

Prompt: Could you kindly confirm the outcome this assay logged for CCCCCc1cc2c(cc1O)CC[C@@H]1[C@@H]2CC[C@]2(C)[C@@H](O)CC[C@@H]12 ?
Completion: f

Prompt: Could you kindly confirm the outcome this assay logged for CC(C)(C)OC(=O)Cn1ncn(NC(=O)Cc2ccccc2)c1=S ?
Completion: f

Prompt: Could you kindly confirm the outcome this assay logged for CN(C)c1n/c(=N/Cc2ccccc2)ss1 ?
Completion: f

Prompt: Could you kindly confirm the outcome this assay logged for CCOC(=O)c1nc2cc(F)cc(F)c2[nH]c1=O ?
Completion: f

Prompt: Could you kindly confirm the outcome this assay logged for NC(=O)c1ccccc1NC(=O)C(=O)C(C(=O)c1ccc(Cl)c(Cl)c1)C1OC(=O)c2ccccc21 (stereo unspecified) ?
Completion: f

Prompt: Could you kindly confirm the outcome this assay logged for COc1cc([C@@H]2c3cc4c(cc3[C@@H](Nc3ccc([N+](=O)[O-])cc3C(=O)c3ccccc3)[C@H]3COC(=O)[C@H]23)OCO4)cc(OC)c1OC ?
Completion: t

Prompt: Could you kindly confirm the outcome this assay logged for CC1=NN(c2nc(N)nc(CC#N)n2)C(C)(C)C1 ?
Completion: f

Prompt: Could you kindly confirm the outcome this assay logged for COC(=O)CCCc1ccc2c(c1)CCC2 ?
Completion: f

Prompt: Could you kindly confirm the outcome this assay logged for O=C1C(Br)=CC2(C=C1Br)CCNC1=C2C(=O)c2ncccc2C1=O ?
Completion: t
